Examples of molecules with documented EC50 follow.
- system-name: human recombinant OX2 (hOX2) receptors expressed in CHO cells (Homo sapiens, UniProt O43614)
- Sequence (O43614 whole entry): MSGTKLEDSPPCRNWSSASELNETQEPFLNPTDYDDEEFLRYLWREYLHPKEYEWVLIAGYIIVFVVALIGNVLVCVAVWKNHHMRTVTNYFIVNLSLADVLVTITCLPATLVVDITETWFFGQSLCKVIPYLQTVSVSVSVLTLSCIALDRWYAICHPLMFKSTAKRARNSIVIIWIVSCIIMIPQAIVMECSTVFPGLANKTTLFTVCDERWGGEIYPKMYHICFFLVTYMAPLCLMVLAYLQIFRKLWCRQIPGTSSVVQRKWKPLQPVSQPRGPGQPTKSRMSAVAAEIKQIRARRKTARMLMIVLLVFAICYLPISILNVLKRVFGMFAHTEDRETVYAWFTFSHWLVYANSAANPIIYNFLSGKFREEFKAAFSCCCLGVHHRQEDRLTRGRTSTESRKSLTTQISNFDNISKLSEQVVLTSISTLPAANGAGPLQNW
- protocol-description: IP-1 accumulation assay (IP-One HTRF) in hOX2-CHO cells
- test-settings: 60 min incubation at 37° C., mean of at least two independent experiments, read-out: EC50_OX2R Category

The examples below pair each entry with its known result.
{"molecule": "O=C1COCC2(CCN3C(=O)CC(C(F)(F)F)Oc4ccccc4[C@H]4CC[C@H](CC4)OCC32)N1 (relative stereo) [Example 6]", "measured-result": "1000 to 10000 nM"}
{"molecule": "O=C1COC[C@@]2(CCN3C(=O)CCOc4cccc(F)c4[C@H]4CC[C@H](CC4)OC[C@H]32)N1 (single isomer, unassigned) [Example 10a]", "measured-result": "< 100 nM"}
{"molecule": "O=C1CCOc2ccccc2[C@H]2CC[C@H](CC2)OCC2N1CCC21COCCN1 (mixture of isomers) [Example 9]", "measured-result": "> 10000 nM"}
{"molecule": "CC1Oc2ccccc2[C@H]2CC[C@H](CC2)OC[C@H]2N(CCC[C@]23COCC(=O)N3)C1=O (single isomer, unassigned) [Example 35b]", "measured-result": "> 10000 nM"}
{"molecule": "O=C1COc2ccccc2[C@H]2CC[C@H](CC2)OCC2N1CCCC21CCCS(=O)(=O)N1 (mixture of isomers) [Example 59]", "measured-result": "< 100 nM"}
{"molecule": "O=C1COC[C@@]2(CCCN3C(=O)C4(CC4)COc4ccccc4[C@H]4CC[C@H](CC4)OC[C@H]32)N1 (single isomer, unassigned) [Example 37a]", "measured-result": "< 100 nM"}
{"molecule": "O=C1COC[C@@]2(CCCN3C(=O)COc4c(F)ccc(F)c4[C@H]4CC[C@H](CC4)OC[C@H]32)N1 (single isomer, unassigned) [Example 44a]", "measured-result": "< 100 nM"}
{"molecule": "O=C1COC[C@@]2(CCCN3C(=O)OCCOc4cccc(c4)[C@H]4CC[C@H](CC4)OC[C@H]32)N1 (single isomer, unassigned) [Example 53a]", "measured-result": "< 100 nM"}
{"molecule": "C[C@@H]1C[C@@]2(COCC(=O)N2)[C@@H]2CO[C@H]3CC[C@H](CC3)c3cccc(F)c3OCC(=O)N12 (single isomer, unassigned) [Example 15a]", "measured-result": "< 100 nM"}
{"molecule": "O=C1COC[C@@]2(CCCN3C(=O)CCOc4ccccc4[C@H]4CC[C@H](CC4)OC[C@H]32)N1 (single isomer, unassigned) [Example 33a]", "measured-result": "< 100 nM"}

Field request: EC50 | item: O=C1COC[C@]2(CCCN3C(=O)COc4cc(F)cc(F)c4[C@H]4CC[C@H](CC4)OC[C@@H]32)N1 (single isomer, unassigned) [Example 42b]
100 to 1000 nM

Continue with O=C1COC[C@@]2(CCCN3C(=O)COc4ncccc4[C@H]4CC[C@H](CC4)OC[C@H]32)N1 (single isomer, unassigned) [Example 45a]
< 100 nM

Values from patent US20250320227A1
